Test system: peripheral blood leukocytes of normal mice
Test: Effects on peripheral blood leukocytes of normal mice (peripheral blood routine test)
Assay type: in vivo
Details: day 3, compounds 20 mg/kg ig once a day, G-CSF 22.5 ug/kg sc once a day
Define the label as Met when NE % (percentage of neutrophils in the total number of white blood cells) is strictly less than 40% and as Not met in all remaining cases.

smiles-data	subject-of-test	answer-label
COc1ccc(-n2c3cssc-3c(NC(=O)Oc3ccc(Cl)cc3)c2=O)c(OC)c1	peripheral blood leukocytes of normal mice	Met
CCCCCCCOC(=O)Nc1c2sscc-2n(-c2ccc(OC)cc2OC)c1=O	peripheral blood leukocytes of normal mice	Met
CCCCOC(=O)Nc1c2sscc-2n(-c2ccc(OC)cc2OC)c1=O	peripheral blood leukocytes of normal mice	Not met
CCSC(=O)Nc1c2sscc-2n(-c2ccc(OC)cc2OC)c1=O	peripheral blood leukocytes of normal mice	Not met
COc1ccc(-n2c3cssc-3c(NC(=O)Oc3ccc(C)cc3)c2=O)c(OC)c1	peripheral blood leukocytes of normal mice	Met
COc1ccc(-n2c3cssc-3c(NC(=O)OCc3cccs3)c2=O)c(OC)c1	peripheral blood leukocytes of normal mice	Met
COc1ccc(-n2c3cssc-3c(NC(=O)Nc3ccccc3)c2=O)c(OC)c1	peripheral blood leukocytes of normal mice	Met
COc1ccc(-n2c3cssc-3c(NC(=O)Oc3ccccc3)c2=O)c(OC)c1	peripheral blood leukocytes of normal mice	Not met

* * *

Test system: peripheral blood leukocytes of normal mice
Test: Effects on peripheral blood leukocytes of normal mice (peripheral blood routine test)
Type: in vivo
Settings: day 0 (before administration), compounds 20 mg/kg ig once a day, G-CSF 22.5 ug/kg sc once a day
measure-name: NE % (percentage of neutrophils in the total number of white blood cells) (%)

smiles-data	result
C=CCOC(=O)Nc1c2sscc-2n(-c2ccc(OC)cc2OC)c1=O	31.56
COc1ccc(-n2c3cssc-3c(NC(=O)OC3CCCC3)c2=O)c(OC)c1	20.81
CCCCOC(=O)Nc1c2sscc-2n(-c2ccc(OC)cc2OC)c1=O	25.6
CCSC(=O)Nc1c2sscc-2n(-c2ccc(OC)cc2OC)c1=O	24.45
COc1ccc(-n2c3cssc-3c(NC(=O)Nc3ccccc3)c2=O)c(OC)c1	28.98
CCOC(=O)Nc1c2sscc-2n(-c2ccc(OC)cc2OC)c1=O	31.56
COc1ccc(-n2c3cssc-3c(NC(=O)Oc3ccccc3)c2=O)c(OC)c1	33.73
COc1ccc(-n2c3cssc-3c(NC(=O)NCc3ccccc3)c2=O)c(OC)c1	24.67
COc1ccc(-n2c3cssc-3c(NC(=O)OCC(C)C)c2=O)c(OC)c1	20.11

* * *

System: peripheral blood leukocytes of normal mice
Test: Effects on peripheral blood leukocytes of normal mice (peripheral blood routine test)
Assay type: in vivo
Conditions: day 0 (before administration), compounds 20 mg/kg ig once a day, G-CSF 22.5 ug/kg sc once a day
Overview of reported NE % (percentage of neutrophils in the total number of white blood cells) across a group of compounds:
measure-name: NE % (percentage of neutrophils in the total number of white blood cells) (%)

compound	result
COc1ccc(-n2c3cssc-3c(NC(=O)OC(C)c3ccccc3)c2=O)c(OC)c1 (centres unmarked) [compound 020]	30.03
COc1ccc(-n2c3cssc-3c(NC(=O)OCc3cccs3)c2=O)c(OC)c1 [compound 021]	29.78
CCCCCCCOC(=O)Nc1c2sscc-2n(-c2ccc(OC)cc2OC)c1=O [compound 015]	20.76
COc1ccc(-n2c3cssc-3c(NC(=O)Oc3ccc(C)cc3)c2=O)c(OC)c1 [compound 018]	21.74
COC(=O)Nc1c2sscc-2n(-c2ccc(OC)cc2OC)c1=O [compound 005]	26.46
CCCCCOC(=O)Nc1c2sscc-2n(-c2ccc(OC)cc2OC)c1=O [compound 011]	27.68
COc1ccc(-n2c3cssc-3c(NC(=O)OCc3ccccc3)c2=O)c(OC)c1 [compound 003]	32.51
COc1ccc(OC(=O)Nc2c3sscc-3n(-c3ccc(OC)cc3OC)c2=O)cc1 [compound 010]	20.86

Ref: patent US8258176B2
